# melting point annotations
Property label: melting point

- Molecule: "CSc1nc(-c2ccc(O)cc2)n(C)n1"
  Property label: "melting point"
  Recorded result: "216 to 220 °C"
- Molecule: "NCc1ccc(F)cc1C(F)(F)C(F)(F)c1ccccc1"
  Property label: "melting point"
  Recorded result: "52.5 to 54 °C"
- Molecule: "CC(=O)c1ccc(-c2ccc(Cl)cc2)c([N+](=O)[O-])c1"
  Property label: "melting point"
  Recorded result: "103 to 105 °C"
- Molecule: "CCc1ccc2c(c1)C=Cc1cc(C)ccc1C2c1cn(-c2ccnc(NCC(=O)Nc3nc(CC(=O)O)cs3)n2)c(=O)[nH]c1=O (stereo not given)"
  Property label: "melting point"
  Recorded result: "217 °C"
- Molecule: "O=CN1CCSc2ccccc2C1"
  Property label: "melting point"
  Recorded result: "84 to 87 °C"
